For each of the compounds below, state its Fold increase h-GABA-A α5β3γ2 oocyte.
Molecular target: h-GABA-A α5β3γ2 (Homo sapiens, UniProt P18507+P31644)
Sequence (P31644 32-462): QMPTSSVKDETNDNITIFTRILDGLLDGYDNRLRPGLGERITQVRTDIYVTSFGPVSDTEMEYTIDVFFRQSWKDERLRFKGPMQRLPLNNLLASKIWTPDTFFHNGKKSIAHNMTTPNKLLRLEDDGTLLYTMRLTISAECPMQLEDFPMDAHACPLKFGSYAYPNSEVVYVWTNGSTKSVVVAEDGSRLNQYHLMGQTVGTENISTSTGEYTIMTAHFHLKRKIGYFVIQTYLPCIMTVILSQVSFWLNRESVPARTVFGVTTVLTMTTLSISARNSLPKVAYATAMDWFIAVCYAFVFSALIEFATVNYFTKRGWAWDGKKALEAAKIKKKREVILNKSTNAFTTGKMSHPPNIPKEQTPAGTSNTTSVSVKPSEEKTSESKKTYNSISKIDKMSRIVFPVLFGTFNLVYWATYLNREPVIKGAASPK
Sequence (P28472 26-473 partner): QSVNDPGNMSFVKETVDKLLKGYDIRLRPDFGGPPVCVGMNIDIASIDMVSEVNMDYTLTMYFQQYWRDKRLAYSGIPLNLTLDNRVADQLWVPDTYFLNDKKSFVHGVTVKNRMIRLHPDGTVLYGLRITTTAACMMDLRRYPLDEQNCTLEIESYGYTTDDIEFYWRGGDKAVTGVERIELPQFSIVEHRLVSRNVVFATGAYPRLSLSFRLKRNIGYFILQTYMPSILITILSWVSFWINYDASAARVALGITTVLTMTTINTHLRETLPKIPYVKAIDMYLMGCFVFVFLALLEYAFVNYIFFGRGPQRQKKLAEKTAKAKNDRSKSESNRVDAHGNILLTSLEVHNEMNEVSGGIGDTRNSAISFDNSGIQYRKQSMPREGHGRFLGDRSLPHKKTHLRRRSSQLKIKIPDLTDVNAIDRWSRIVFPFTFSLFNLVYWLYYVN
Sequence (P18507 40-475): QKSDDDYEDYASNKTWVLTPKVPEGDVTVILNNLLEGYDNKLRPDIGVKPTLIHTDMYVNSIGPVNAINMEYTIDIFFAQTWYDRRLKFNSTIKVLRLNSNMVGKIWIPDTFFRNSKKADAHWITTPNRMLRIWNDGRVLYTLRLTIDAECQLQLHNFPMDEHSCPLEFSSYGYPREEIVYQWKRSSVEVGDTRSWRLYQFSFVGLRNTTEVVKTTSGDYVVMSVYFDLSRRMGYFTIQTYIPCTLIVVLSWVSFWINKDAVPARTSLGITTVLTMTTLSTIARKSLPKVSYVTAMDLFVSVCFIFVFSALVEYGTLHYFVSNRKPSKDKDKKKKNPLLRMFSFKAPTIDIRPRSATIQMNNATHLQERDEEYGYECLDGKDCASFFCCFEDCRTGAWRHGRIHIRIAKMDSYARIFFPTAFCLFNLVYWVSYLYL
Assay: Two-electrode voltage clamp electrophysiology in Xenopus laevis oocytes expressing GABAA receptors, modulation of GABA EC20 current
Type: cell-based
Set-up: host or cells: Xenopus laevis oocytes micro-injected with RNA transcripts of the subunits
Conditions: test compound at approx. 30 fold its Ki, GABA at EC20; Table 1
Answers are plain numbers.

Guide cases for Fold increase h-GABA-A α5β3γ2 oocyte, answers given:
>>> readout_number("Cc1ccc(-c2noc(C)c2Cn2ncc(-c3ccc(F)cc3)cc2=O)cn1")
1.71
>>> readout_number("Cc1onc(-c2ccc(Cl)cn2)c1Cn1ncc(N2CC3(CCCO3)C2)cc1=O")
1.2
>>> readout_number("Cc1ccc(-c2noc(C)c2Cn2ncc(N3C[C@@H](C)O[C@H](C)C3)cc2=O)cn1 (single isomer, unassigned)")
3.16
>>> readout_number("Cc1ccc(-c2noc(C)c2Cn2ncc(N3CC4(CN(C)C4)C3)cc2=O)cn1")
3.45

Quick batch: Fold increase h-GABA-A α5β3γ2 oocyte for everything below.
1. Cc1onc(-c2ccc(Cl)nc2)c1Cn1ncc(N2CC(OC3CCC3)C2)cc1=O
2. Cc1ccc(-c2noc(C)c2Cn2ncc(-c3cnn(CC(C)C)c3)cc2=O)cn1
3. COc1cc(-c2cnn(Cc3c(-c4cnc(C)c(F)c4)noc3C)c(=O)c2)ccn1
4. CCO[C@@H]1CN(c2cnn(Cc3c(-c4ccc(Cl)nc4)noc3C)c(=O)c2)[C@@H]1C

2.56
2.13
1.75
2.17

* * *

Molecular target: h-GABA-A α5β3γ2 (Homo sapiens, UniProt P18507+P31644)
Experiment: Two-electrode voltage clamp electrophysiology in Xenopus laevis oocytes expressing GABAA receptors, modulation of GABA EC20 current
Type: cell-based
Parameters: host or cells: Xenopus laevis oocytes micro-injected with RNA transcripts of the subunits
Conditions: test compound at approx. 30 fold its Ki, GABA at EC20; Table 1
Label rule, in plain words: Fold increase h-GABA-A α5β3γ2 oocyte of 2 and up is Criterion met, under 2 is Criterion not met.

Please review the entries below; each comes with its answer.
>>> cat("Cc1ccc(-c2noc(C)c2Cn2ncc(N3CC(C#N)C3)cc2=O)cn1 [Example 85]")
"Criterion met"
>>> cat("Cc1ccc(-c2noc(C)c2Cn2ncc(N3CC[C@H](C(C)(C)O)C3)cc2=O)cn1 [Example 120]")
"Criterion met"
>>> cat("Cc1ccc(-c2noc(C)c2Cn2ncc(N3CC(F)C3)cc2=O)cn1 [Example 181]")
"Criterion met"
>>> cat("COc1ncc(-c2cnn(Cc3c(-c4ccc(C)nc4)noc3C)c(=O)c2)cc1Cl [Example 188]")
"Criterion met"
>>> cat("Cc1ccc(-c2noc(C)c2Cn2ncc(-c3cccc(C#N)n3)cc2=O)cn1 [Example 211]")
"Criterion met"

Has Cc1ncccc1N1CCN(c2cnn(Cc3c(-c4ccc(Cl)nc4)noc3C)c(=O)c2)CC1 [Example 285] a recorded Fold increase h-GABA-A α5β3γ2 oocyte greater than or equal to 2?
Criterion not met

Identify whether the reported Fold increase h-GABA-A α5β3γ2 oocyte of the following compound is 2 or greater: CNc1cnn(Cc2c(-c3ccc(C)nc3)noc2C)c(=O)c1 [Example 78]
Criterion not met

API: above_or_equal(metric=Fold increase h-GABA-A α5β3γ2 oocyte, cutoff=2) for item CCOC1CN(c2cnn(Cc3c(-c4ccc(C)nn4)noc3CF)c(=O)c2)C1 [Example 279]
Criterion not met

Does the compound CO[C@@H]1CN(c2cnn(Cc3c(-c4ccc(C)nc4)noc3C)c(=O)c2)[C@@H]1C [Example 194] have recorded Fold increase h-GABA-A α5β3γ2 oocyte that is 2 or more?
Criterion met

* * *

Biological target: h-GABA-A α5β3γ2 (Homo sapiens, UniProt P18507+P31644)
Assay: Two-electrode voltage clamp electrophysiology in Xenopus laevis oocytes expressing GABAA receptors, modulation of GABA EC20 current
Format: cell-based
Parameters: host or cells: Xenopus laevis oocytes micro-injected with RNA transcripts of the subunits
Conditions: test compound at approx. 30 fold its Ki, GABA at EC20; Table 1
OBSERVABLE: Fold increase h-GABA-A α5β3γ2 oocyte
Answers are plain numbers.

>>> readout_number("Cc1ccc(-c2noc(C)c2Cn2ncc(N3CC4(CC(C)CO4)C3)cc2=O)nn1 (single isomer, unassigned) [Example 241]")
1.8
>>> readout_number("Cc1ccc(-c2noc(C)c2Cn2ncc(N3CC4(C[C@H](F)CO4)C3)cc2=O)cn1")
1.93
>>> readout_number("CCOC1CN(c2cnn(Cc3c(-c4ccc(C)nc4)noc3C)c(=O)c2Cl)C1")
2.84

Next:
Value lookup for Fold increase h-GABA-A α5β3γ2 oocyte; key = Cc1ccc(-c2noc(C)c2Cn2ncc(N3CCN[C@@H](C)C3)cc2=O)cn1
2.82

* * *

Biological target: h-GABA-A α5β3γ2 (Homo sapiens, UniProt P18507+P31644)
Assay: Two-electrode voltage clamp electrophysiology in Xenopus laevis oocytes expressing GABAA receptors, modulation of GABA EC20 current
Type: cell-based
Design: host or cells: Xenopus laevis oocytes micro-injected with RNA transcripts of the subunits
Conditions: % modulation of GABA EC20 = 100*(Fold increase-1); Table 1
Provide the recorded Efficacy (GABA) % for the entries that follow.
Give bare numbers, in %.

Can you give me Efficacy (GABA) % for all of these, one by one?
1. Cc1ccc(-c2noc(C)c2Cn2ncc(N3CC4(CCC(F)CO4)C3)cc2=O)nn1 (single isomer, unassigned) [Example 288]
2. Cc1ccc(-c2nocc2Cn2ncc(N3CCO[C@H](C)C3)cc2=O)cn1

1: 63; 2: 167

* * *

Target: h-GABA-A α5β3γ2 (Homo sapiens, UniProt P18507+P31644)
Experiment: Two-electrode voltage clamp electrophysiology in Xenopus laevis oocytes expressing GABAA receptors, modulation of GABA EC20 current
Type: cell-based
Set-up: host or cells: Xenopus laevis oocytes micro-injected with RNA transcripts of the subunits
Details: % modulation of GABA EC20 = 100*(Fold increase-1); Table 1
# Y = Efficacy (GABA) % below 80% (exclusive); N = Efficacy (GABA) % at/above 80%

>>> cat("Cc1ccc(-c2noc(C)c2Cn2ncc(N3CC[C@@H](O)C3)cc2=O)cn1")
"N"
>>> cat("Cc1onc(-c2ccc(F)cc2)c1Cn1ncc(N2CCOCC2)cc1=O")
"Y"
>>> cat("Cc1ccc(-c2noc(C)c2Cn2ncc(-c3ccc(N(C)C)nc3)cc2=O)cn1")
"N"

Field: below-cutoff. Rule: recorded Efficacy (GABA) % strictly less than 80%. Subject: Cc1ccc(-c2noc(C)c2Cn2ncc(N3CC4(CC(F)CCO4)C3)cc2=O)nn1 (single isomer, unassigned)
Y

Report whether reported Efficacy (GABA) % is lower than 80% (strictly) for CCc1onc(-c2ccc(C)nn2)c1Cn1ncc(N2CC3(CCCCO3)C2)cc1=O
N

* * *

Target: h-GABA-A α5β3γ2 (Homo sapiens, UniProt P18507+P31644)
Assay: Two-electrode voltage clamp electrophysiology in Xenopus laevis oocytes expressing GABAA receptors, modulation of GABA EC20 current
Type: cell-based
Set-up: host or cells: Xenopus laevis oocytes micro-injected with RNA transcripts of the subunits
Conditions: test compound at approx. 30 fold its Ki, GABA at EC20; Table 1
Provide the recorded Fold increase h-GABA-A α5β3γ2 oocyte for the entries that follow.
Answers are plain numbers.

Here is how some compounds turned out for Fold increase h-GABA-A α5β3γ2 oocyte.
>>> readout_number("Cc1ccc(-c2noc(C)c2Cn2ncc(N3CC4(CCC(F)CO4)C3)cc2=O)nn1 (single isomer, unassigned) [Example 288]")
1.63
>>> readout_number("COc1ncc(-c2cnn(Cc3c(-c4ccc(Cl)nn4)noc3C)c(=O)c2)cc1Cl")
2.66

Could you report Fold increase h-GABA-A α5β3γ2 oocyte for every entry in the following list?
1. Cc1ccc(-c2noc(C)c2Cn2ncc(-c3cnn(CC(F)F)c3)cc2=O)cn1
2. COc1cc(-c2cnn(Cc3c(-c4ncc(C(F)(F)F)cn4)noc3C)c(=O)c2)ccn1

1. 2.66
2. 1.41

Provide the reported Fold increase h-GABA-A α5β3γ2 oocyte of each entry below, same order.
1. CO[C@H]1CN(c2cnn(Cc3c(-c4ccc(Cl)nc4)noc3C)c(=O)c2)[C@H]1C
2. Cc1ccc(-c2noc(C)c2Cn2ncc(N3C[C@H](C)O[C@@H](C)C3)cc2=O)cn1 (single isomer, unassigned)
3. Cc1onc(-c2ccc(Cl)nc2)c1Cn1ncc(N2CCC3(CC2)COC3)cc1=O

[2.12, 3.28, 2.26]

Please give Fold increase h-GABA-A α5β3γ2 oocyte, item by item, for the list that follows.
1. Cc1ccc(-c2noc(C)c2Cn2ncc(N3C[C@H]4COC[C@H]4C3)cc2=O)cn1
2. Cc1onc(-c2ccc(F)cc2)c1Cn1ncc(N2CCOCC2)cc1=O
3. Cc1ccc(-c2noc(C)c2Cn2ncc(N3CC4(CCCCCO4)C3)cc2=O)nn1
4. Cc1ccc(-c2noc(C)c2Cn2ncc(N3CC(OCC4CC4)C3)cc2=O)cn1
5. COC1CN(c2cnn(Cc3c(-c4ccc(Cl)nn4)noc3C)c(=O)c2)C1
6. Cc1onc(-c2ccc(Cl)cn2)c1Cn1ncc(N2CCN(C(=O)C3(C)CC3)CC2)cc1=O
7. Cc1onc(-c2ccc(Cl)nc2)c1Cn1ncc(N2CC3(C2)CC(F)(F)CO3)cc1=O

1: 2.67; 2: 1.57; 3: 2; 4: 2.47; 5: 1.86; 6: 2.39; 7: 1.85

Provide reported Fold increase h-GABA-A α5β3γ2 oocyte for each item, in the same order as listed.
1. Cc1onc(-c2ccc(C(F)(F)F)nn2)c1Cn1ncc(N2CC3(CC[C@@H](F)CO3)C2)cc1=O
2. Cc1onc(-c2ccc(Cl)nc2)c1Cn1ncc(N2CCN3C(=O)CCC3C2)cc1=O (stereo not shown)

1. 2.05
2. 3.15
